Data provenance is BindingDB's records for doi:10.7270/Q2QF8R8B.

Recorded below: IC50, system Cathepsin G (Homo sapiens).
Reply with just the number (in µM).

Form field - read-out: IC50; system: Cathepsin G (Homo sapiens); submitted item: Cc1cc(C)cc(C(=O)n2cnnc2N)c1 3.88

Form: Entry = CCOC(=O)c1c(C)n(C(=O)c2ccco2)c(=O)n1C(=O)c1ccco1 | System = Cathepsin G (Homo sapiens) | IC50 = ____ 12

For the record COc1ccc(-c2cc(C(=O)NCc3ccc(Cl)cc3)no2)cc1OC , what value of IC50 is listed for Cathepsin G (Homo sapiens)? 43.2

Notebook: pull reported IC50 for Cathepsin G (Homo sapiens), entry CCCC(=O)Nc1ccc(C(=O)n2nnc3ccccc32)cc1 0.923
